biological target: MopR M100Q_V116N (Acinetobacter guillouiae, UniProt Q43965, M100Q/V116N); experiment: biochemical
Experimental readout: Kd (µM)
The reply should be a number in µM, with the unit left off.

Which measured Kd value corresponds to `Oc1ccccc1` ? 4.35

Source of measurements: paper PMC10598577
